# TEST_SUMMARY: Quantitative High-Throughput drug screen in 47 multiple myeloma cell lines against the NCATS MIPE library collection: U266_ATCC cell viability assay (AID 1919864); further: nearly all actives have a fitted effect of over 35% in size
# STUDY_CONDITIONS: U266 myeloma viability, CellTiter-Glo ATP luminescence, 48 h; series mostly up to 45.8 µM
Records with an inconclusive call do not appear. Activity calls are given as the source filed them. The call rests on the fitted dose curve; in most records, active means well fitted cell-killing curve with a large enough effect; inconclusive means small, poorly fitted or top-dose-only effect, or effect the other way; inactive means no such curve, though single readings can be large or run the other way.
Reply using exactly one outcome from class 1 = active, class 0 = inactive

>  <TEST_SMILES>
Cc1cccc(C=NNc2cc(N3CCOCC3)nc(OCCc3ccccn3)n2)c1

>  <LABEL_CLASS>
class 1

$$$$
>  <TEST_SMILES>
COc1c(N2C[C@@H]3CCCN[C@H]3C2)c(F)cc2c(=O)c(C(=O)O)cn(C3CC3)c12

>  <LABEL_CLASS>
class 0

$$$$
>  <TEST_SMILES>
CN1CCN(Cc2ccc(NC(=O)Nc3ccc(Oc4cc(NC(=O)C5CC5)ncn4)cc3)cc2C(F)(F)F)CC1

>  <LABEL_CLASS>
class 1

$$$$
>  <TEST_SMILES>
CCCCN1CCC(CNC(=O)c2c3n(c4ccccc24)CCCO3)CC1

>  <LABEL_CLASS>
class 1

$$$$
>  <TEST_SMILES>
COc1ccc2c(c1)CC[C@@H](CN(C)CC(=O)O)[C@H]2c1ccccc1

>  <LABEL_CLASS>
class 1

$$$$

INPUT: Just curious, what result did "C[C@]1(CO)CN(c2cc(C(=O)Nc3ccc4c(c3)-c3c(c(C(N)=O)nn3-c3ccc(F)cc3)CC4)c(Cl)cn2)C[C@@]1(C)CO" get here?
OUTPUT: class 1
